- System: biotinyl-Phe-oxazolone
- experimental-protocol: self-aminoacylation, catalytic enhancement (BFO) (fold over background); higher = more active; k-Seq, kA / k0A0; sequences stand for … in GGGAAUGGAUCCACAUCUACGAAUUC…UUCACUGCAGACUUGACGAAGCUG
Fewer inactive variants are shown than the library holds.
Is self-aminoacylation at least 2? Then label 1. If not, label 0.

1. AUUACCCUGGUCAUCGAUUGU [Fam2.1 aminoacylation ribozyme variant]    label 0
2. AUUCUCCUAGAUCAUCGGGUG [Fam2.2 aminoacylation ribozyme variant]    label 1
3. AAGUUCGCUAAUAGUCGCAAC [Fam3.1 aminoacylation ribozyme variant]    label 1
4. AAGUUAGCUAAUAGUCGCGAG [Fam3.1 aminoacylation ribozyme variant]    label 1
5. AUUACCCUGGUGAUCGAGUGA [Fam2.1 aminoacylation ribozyme variant]    label 1
6. AAGUUUGCUAAUAAACGCAAG [Fam3.1 aminoacylation ribozyme variant]    label 0
7. AUUACCCUGGUGAACGAGUGA [Fam2.1 aminoacylation ribozyme variant]    label 1
8. UAUACCCUGGUCAUCGAGUGA [Fam2.1 aminoacylation ribozyme variant]    label 1
9. CUACUUCAAAUAAUCGGCCUG [Fam1A.1 aminoacylation ribozyme variant]    label 1
10. AUUCCCCUAGGUCGUCGGGUG [Fam2.2 aminoacylation ribozyme variant]    label 1
11. UCACACUUCAAGCAGUCGGUC [Fam1B.1 aminoacylation ribozyme variant]    label 0
12. CUACUGCAAACAAUCGGCCUG [Fam1A.1 aminoacylation ribozyme variant]    label 1
13. CCACAGUUCAAGCAAUCAGUC [Fam1B.1 aminoacylation ribozyme variant]    label 0
14. AUUCACCUAGGUCAUCGGUAG [Fam2.2 aminoacylation ribozyme variant]    label 0
15. CUCCUACAAACAAUCGGUCUG [Fam1A.1 aminoacylation ribozyme variant]    label 0
16. AUUCAGCUAGGUCAUCGGGAG [Fam2.2 aminoacylation ribozyme variant]    label 1
17. AUUACCCUGGCCAUAGAGUGA [Fam2.1 aminoacylation ribozyme variant]    label 1
18. AUUCACCUAGGACUUCGGGUG [Fam2.2 aminoacylation ribozyme variant]    label 1
19. AUUCACCUAGGUCAUCGGGCC [Fam2.2 aminoacylation ribozyme variant]    label 1
20. CCACACUUCGAUCAAUCGGUC [Fam1B.1 aminoacylation ribozyme variant]    label 0
21. CUACUUCAACCAAUCGGUCUA [Fam1A.1 aminoacylation ribozyme variant]    label 1
22. AAGUGUGCUAAUUGUCGCAAG [Fam3.1 aminoacylation ribozyme variant]    label 0
23. UUACUUCAAACAAUCGGUCCG [Fam1A.1 aminoacylation ribozyme variant]    label 0
24. AUUACCCUGGUCAGCGGGUGA [Fam2.1 aminoacylation ribozyme variant]    label 1
25. CUACUUCAGUCAAUCGGUCUG [Fam1A.1 aminoacylation ribozyme variant]    label 0
26. AUUACCCUGGUCAUCCAGUUA [Fam2.1 aminoacylation ribozyme variant]    label 0
27. CCACACUAAAAGCAAUCGGUC [Fam1B.1 aminoacylation ribozyme variant]    label 0
28. CUACAUCGAACAAUCGGUCUG [Fam1A.1 aminoacylation ribozyme variant]    label 0
29. AUUAGCCAGGUCAUCGAGUGA [Fam2.1 aminoacylation ribozyme variant]    label 1
30. AAGGUUGCUAAUAGUCGGAAG [Fam3.1 aminoacylation ribozyme variant]    label 1
31. AUUACCCUGGUCAUGGAGUGA [Fam2.1 aminoacylation ribozyme variant]    label 1
32. AUUACCCUGGACAUCGAGCGA [Fam2.1 aminoacylation ribozyme variant]    label 0
33. CCACACUUCAAGCAAUCCGGC [Fam1B.1 aminoacylation ribozyme variant]    label 0
34. CCACACUUUAAGCAAUCGGAC [Fam1B.1 aminoacylation ribozyme variant]    label 0
35. CCACACUUGAAGCGAUCGGUC [Fam1B.1 aminoacylation ribozyme variant]    label 0
